Where do the numbers come from? From patent EP4230701A1.

# experiment.notes: UV-Vis absorption spectra in acetonitrile
# Format: physicochemical
# assay.context: Molar extinction coefficient at longest wavelength transition
We begin with a simple list: items and their reported ε.
quantity.kind: ε (cm^-1M^-1)

| compound | quantity.kind | recorded.number |
| --- | --- | --- |
| CCN(CC)c1ccc2c(c1)OC(=C(C#N)C#N)C=C2/C=C/c1ccc(C(=O)OC)cc1 [Compound 4] | ε | 19000 |
| CCN(CC)c1ccc2c(/C=C/c3ccc(C(=O)OC)cc3)cc(=[N+]3CCCCC3)oc2c1.O=[N+]([O-])[O-] [Compound 11] | ε | 18000 |
| CCN(CC)c1ccc2c(c1)OC(=C(C#N)C#N)C=C2/C=C/c1ccc(OCCCCCC(=O)ON2C(=O)CCC2=O)cc1 [Compound 9] | ε | 24000 |
| CCN(CC)c1ccc2c(C)cc(=O)oc2c1 [Compound 1, 7-diethylamino-4-methylcoumarin, reference compound] | ε | 22910 |
| CCN(CC)c1ccc2c(c1)OC(=C(C#N)C#N)C=C2/C=C/c1ccc(OCCCCCC(=O)O)cc1 [Compound 8] | ε | 24000 |
| CCN(CC)c1ccc2c(/C=C/c3ccc(N(C)C)cc3)cc(=[N+]3CCCCC3)oc2c1.O=[N+]([O-])[O-] [Compound 13] | ε | 39000 |
| CCN(CC)c1ccc2c(c1)OC(=C(C#N)C#N)C=C2/C=C/c1ccc(OC)cc1 [Compound 7] | ε | 24000 |

----------
We begin with a simple list: items and their reported ε.
# experiment.notes: UV-Vis absorption spectra in acetonitrile
# Assay type: physicochemical
# assay.context: Molar extinction coefficient at longest wavelength transition (Table 5)
quantity.kind: ε (cm^-1m^-1)

| compound | unit | recorded.number |
| --- | --- | --- |
| CCN(CC)c1ccc2c(/C=C/c3ccc(OC)cc3)cc(=[N+]3CCCCC3)oc2c1.O=[N+]([O-])[O-] [Compound 14] | cm^-1m^-1 | 30000 |
| CCN(CC)c1ccc2c(/C=C/c3ccc(OCCCCCC(=O)O)cc3)cc(=[N+]3CCCCC3)oc2c1.O=[N+]([O-])[O-] [Compound 15] | cm^-1m^-1 | 30000 |
| CCN(CC)c1ccc2c(/C=C/c3ccc(OCCCCCC(=O)ON4C(=O)CCC4=O)cc3)cc(=[N+]3CCCCC3)oc2c1.O=[N+]([O-])[O-] [Compound 16] | cm^-1m^-1 | 30000 |
